These measurements were taken from paper PMC10299677.

Could you please report measured IC50 for the items listed next?
Tested on: NO
Test: NO (nitrite) formation in LPS-treated macrophages (BMDM)
Format: cell-based, C57BL/6J mice
Conditions: compounds 30 min prior to 10 ng/mL LPS for 24 h
Give your result in µM as a bare value.

Request: Short answer please: IC50, NO, entry "O=C(O)/C=C1/Oc2ccc(Br)cc2C1(F)F"
Result: 2.42

Request: Next: "O=C(O)/C=C1\Oc2ccc(Br)cc2C1(F)F"
Result: 5.23

----------
Could you please report measured viability at 24 h, 50 µM for the items listed next?
Assay: Toxicity on macrophages (BMDM), WST-1 assay
Type: cell-based, C57BL/6J mice
Conditions: C57BL/6J, mouse, bone marrow-derived macrophages (BMDM), read-out: macrophage viability
Please answer using the number first and the unit second.

Request: Dear colleague, I am looking for the recorded viability at 24 h, 50 µM of the following compound: COC(=O)CC1(SCCO)Oc2ccc(Br)cc2C1(F)F (stereo not drawn) [Compound 7]
Result: 50%

Request: Next: COC(=O)/C=C1/Oc2ccc(Br)cc2C1(F)F [Compound 1]
Result: 50%

Request: Next: COC(=O)C1CC(C)=C(C)CC12Oc1ccc(Br)cc1C2(F)F (stereo not drawn) [Compound 9]
Result: 50%

----------
Target: COX-1 (Homo sapiens, UniProt P23219)
Sequence (P23219 24-599): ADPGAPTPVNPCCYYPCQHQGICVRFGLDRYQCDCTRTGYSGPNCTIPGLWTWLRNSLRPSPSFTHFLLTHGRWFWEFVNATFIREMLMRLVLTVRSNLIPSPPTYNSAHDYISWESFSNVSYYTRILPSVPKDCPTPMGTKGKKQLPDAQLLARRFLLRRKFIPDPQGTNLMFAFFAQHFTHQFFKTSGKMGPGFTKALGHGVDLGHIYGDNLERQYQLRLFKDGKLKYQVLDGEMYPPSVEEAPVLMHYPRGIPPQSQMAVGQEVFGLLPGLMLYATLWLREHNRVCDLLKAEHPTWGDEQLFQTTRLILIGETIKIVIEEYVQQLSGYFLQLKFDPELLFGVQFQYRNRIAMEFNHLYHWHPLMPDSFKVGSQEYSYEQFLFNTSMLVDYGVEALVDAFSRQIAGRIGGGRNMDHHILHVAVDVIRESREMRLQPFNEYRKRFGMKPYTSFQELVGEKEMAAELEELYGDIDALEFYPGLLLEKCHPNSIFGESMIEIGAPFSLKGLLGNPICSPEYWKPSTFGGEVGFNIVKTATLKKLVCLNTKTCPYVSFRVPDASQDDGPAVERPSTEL
Assay: COX-1 activity: PGE2 from exogenous arachidonic acid in HEK-293 cells overexpressing COX-1
Details: HEK-293 overexpressing COX-1, compounds 30 min prior to 10 µM arachidonic acid
Could you please report measured IC50 for the items listed next?
Please answer using the number first and the unit second.

Request: Dear colleague, I am looking for the recorded IC50 of the following compound: "C=C(C)c1ccc2oc(CC(=O)O)c(F)c2c1"
Result: 5 µM

Request: Next: "O=C(O)/C=C1\Oc2ccc(Br)cc2C1(F)F"
Result: 7.9 µM
